# system_name: T1, human IL-23 (Sino Biological, CT048-H08H) (human, UniProt Q9NPF7 20-189; P29460 23-328)
# T1 construct: also called human IL-23 protein; Human IL-23 p19
# T1 sequence (looked up) 1: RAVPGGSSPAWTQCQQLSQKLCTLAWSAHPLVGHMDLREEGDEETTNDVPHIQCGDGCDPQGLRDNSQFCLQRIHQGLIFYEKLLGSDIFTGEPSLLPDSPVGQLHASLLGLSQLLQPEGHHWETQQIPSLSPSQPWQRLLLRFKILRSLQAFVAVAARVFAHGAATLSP
# T1 sequence (looked up) 2: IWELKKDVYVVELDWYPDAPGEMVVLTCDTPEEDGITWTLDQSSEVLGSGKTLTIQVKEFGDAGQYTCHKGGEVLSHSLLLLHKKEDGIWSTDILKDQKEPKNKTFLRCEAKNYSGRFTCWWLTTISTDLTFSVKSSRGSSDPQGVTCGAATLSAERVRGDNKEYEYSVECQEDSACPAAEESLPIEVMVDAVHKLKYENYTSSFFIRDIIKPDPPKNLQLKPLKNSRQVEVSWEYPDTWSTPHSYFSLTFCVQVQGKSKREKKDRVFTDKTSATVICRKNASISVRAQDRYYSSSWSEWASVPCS
# protocol: ELISA, sample coated, IL-23 titrated, anti-His-HRP
The entries below are paired with their reported EC50.

binder	u	EC50
Ch38 (antibody, human IgG1, kappa, L234A L235A, V domains shown, chimeric: murine variable regions on hIgG1/hkappa; also called chimeric antibody of mAb38) VH: EFQLQQSGPELVKPGASVKISCKASGYSFTDHNMNWVKQSNGKSLEWIGVINPNYGTTTYNQKFKGKATLTVDQSSSTAYMQLNILTSEDSAVYYCARRGFAYWGQGTLVTVSA VL: DIVISQDELSNPVTSGESVSISCRSSKSLLYKDGKTYLNWFLQRPGQSPQLLIYLMSTRASGVSDRFSGSGSGTDLTLEISRVKAEDVGVYYCQQIAEYPFTFGSGTKLEIKR	nM	1.83
Ch29 (antibody, human IgG1, kappa, L234A L235A, V domains shown, chimeric: murine variable regions on hIgG1/hkappa; also called chimeric antibody of mAb29) VH: QVQLKESGPGLVAPSQSLSITCTVSGFSLTSYAISWVRQPPGKGLEWLGVIWTGGGTNYNSGIKSRLTISKDNSKSQVFLNMNSLQTEDTARYYCVREGDYGSYAGAMDYWGQGTSVTVSS VL: DIVLTQSPASLAVSLGQRATISCRASESVDYYGISSMHWFQQKPGQPPKLLIYRASNLESGIPARFSGSGSRTDFTLTINRVETDDVATYYCQQANKDPYTFGGGTKLEIKR	nM	1.16
Hu29-19 (antibody, human IgG1, kappa, L234A L235A, V domains shown, humanized mAb29, IgG1/kappa) VH: QVTLKESGPVLVKPTETLTLTCTVSGFSLTNYAISWVRQPPGKGLEWLGVIWTGGGTNYNSGIKSRLTISKDNSKSQVVLTMTNMDPVDTARYYCVREGDYGSYAGAMDYWGQGTTVTVSS VL: DIVLTQSPDSLAVSLGERATINCRASESVDYYGISSMHWFQQKPGQPPKLLIYRASNLESGIPARFSGSGSRTDFTLTISSLQAEDVAVYYCQQANKDPYTFGGGTKVEIKR	nM	1.11
Hu38-4 (antibody, human IgG1, kappa, L234A L235A, V domains shown, humanized mAb38, IgG1/kappa) VH: EFQLVQSGAEVKKPGASVKVSCKASGYTFTDHNMNWVRQAPGQRLEWMGVINPNYGTTTYNQKFKGRVTITVDTSASTAYMELSSLRSEDTAVYYCARRGFAYWGQGTLVTVSS VL: DIVMTQTPLSLPVTPGEPASISCRSSKSLLYKDGKTYLNWFLQKPGQSPQLLIYLMQTRASGVPDRFSGSGSGTDLTLKISRVEAEDVGVYYCQQIAEYPFTFGSGTKLEIKR	nM	1.88
